Please find below pIC50 data on human eIF4E protein (Homo sapiens) compiled from the literature.
pIC50: −log10 of the molar value.

Previously resolved entries follow.
CCOc1cc(-c2nc(Nc3ncc(-c4cccs4)cc3C(=O)O)sc2CC(C)(C)C)ccc1Cl; ≥ 6.30
O=C(NCC1CCOCC1)c1ccc(-c2ccc(-c3nc(-c4ccc(Cl)c(Cl)c4)cs3)cc2C(=O)O)cc1; 5.05

Input: # lookup: pIC50 of CC(CNc1nc(-c2ccc(-c3cnco3)cc2)c(-c2cccc3[nH]ccc23)s1)C(=O)O (centres unmarked)
Output: < 4.60

Input: # lookup: pIC50 of O=C(O)CC1CCCN1c1nc(-c2ccc(Oc3ccccc3)cc2)c(-c2cccc3[nH]ccc23)s1 (centres unmarked)
Output: 4.60 to 5.30

Input: # lookup: pIC50 of COCCOc1ccc(-c2nc(Nc3ncc(-c4ccc(C)s4)cc3C(=O)O)sc2CC(C)C)cc1Cl
Output: ≥ 6.30

Input: # lookup: pIC50 of CC(=O)c1ccccc1-c1ccc(-c2nc(-c3ccc(Cl)c(Cl)c3)cs2)cc1C(=O)O
Output: 5.11

Input: # lookup: pIC50 of CC(C)(CNc1nc(-c2ccc(Oc3ccccc3)cc2)cs1)C(=O)O
Output: < 4.60

Input: # lookup: pIC50 of O=C(O)C1CN(c2nc(-c3ccc(Oc4ccccc4)cc3)c(-c3ccccc3)s2)C1
Output: > 5.30

Input: # lookup: pIC50 of CC(C)(CNc1nc(-c2ccc(-c3ccc(F)cc3)cc2)c(-c2cccc3[nH]ccc23)s1)C(=O)O
Output: 4.60 to 5.30

Input: # lookup: pIC50 of O=C(O)C1CC(CNc2nc(-c3ccc(-c4ccc(F)cc4)cc3)cs2)C1 (centres unmarked)
Output: < 4.60

Input: # lookup: pIC50 of O=C(O)C1CN(c2nc(-c3ccc(-c4cnco4)cc3)c(-c3ccccc3)s2)C1
Output: < 4.60

Input: # lookup: pIC50 of O=C(O)c1cc(-c2nc(-c3ccc(Cl)c(Cl)c3)cs2)ccc1-c1cccc([N+](=O)[O-])c1
Output: 5.42

Input: # lookup: pIC50 of O=C(O)c1cc(-c2nc(-c3ccc(Cl)c(Cl)c3)cs2)ccc1-c1cccc(F)c1F
Output: 5.72

Input: # lookup: pIC50 of CC(CC(=O)O)Nc1nc(-c2ccc(-c3cnco3)cc2)c(-c2cncnc2)s1 (centres unmarked)
Output: < 4.60

Input: # lookup: pIC50 of O=C(O)c1cc(-c2nc(-c3ccc(Cl)c(Cl)c3)cs2)ccc1-c1cc(F)cc(F)c1F
Output: 5.80
